# Tested on: CD2F1 mice, L1210 leukemia ip, survival T/C
# Assay Info: NCI In Vivo Anticancer Drug Screen. Data for tumor model L1210 Leukemia (intraperitoneal) in CD2F1 (CDF1) mice
# Run Conditions: endpoint: mean survival time; dose: 200.0 mg/kg/injection; schedule: Q01DX009 (ip); vehicle: saline with Tween-80; higher = longer survival
# Procedure: The antitumor activity of compounds was measured in mice bearing transplantable tumors. Survival or tumor size were measured and the results are expressed as the measurement made in the treated group (T) divided by the measurement made in the vehicle treated control group (C). The tumor model used in this assay is L1210 Leukemia (intraperitoneal) in CD2F1 (CDF1) mice
Inconclusive results and toxic doses are left out.
Endpoint Name: T/C

Solved entries (count: 2):
[
  {
    "Molecule": "COc1cc(OC)c(NC(=O)Nc2ccccc2C(N)=O)cc1Cl",
    "T/C": "100 % of control"
  },
  {
    "Molecule": "COC(=O)c1cccc(C)n1",
    "T/C": "94 % of control"
  }
]

Specify measured T/C for `Cc1ccccc1N=Cc1ccc(N(C)C)cc1` .
95 % of control

Hello, please tell me recorded T/C for this one: CCCCNC(=O)C(C)S(=O)(=O)c1ccc(C)cc1 (stereo unspecified)
97 % of control

Given `CNC(=O)NNC(=O)c1ccccc1Cl` , respond with its T/C.
108 % of control

Give the reported T/C for this molecule. `CC/C(=C\C=C\N(C)C)C(=O)OC`
105 % of control
